# test system: hNK3R (Homo sapiens)
# Construct: host or cells: COS-7
# assay comment: IP3 assay (inositol trisphosphate, 3H-myoinositol) in transiently transfected COS-7 cells
# Type: cell-based
# run parameters: COS-7 cells; figure legends: percent of 10^-6 M NKA
Numbered stars: 1 amine (or outer) side, 2 acyl side, 3 side chain; on linkers, the order of the positions; unused ones are H or OH. Square brackets hold non-standard residues; d marks the D form. Peptide text beside a SMILES is read from it. * marks the point of attachment. C18 diacid = O=C(O)CCCCCCCCCCCCCCCCC(=O)*; γGlu = O=C(O)[C@H](CCC(=O)[*:2])N[*:1]; C14 diacid = O=C(O)CCCCCCCCCCCCC(=O)*; mTyr = N[C@@H](Cc1cccc(O)c1)C(=O)O; NMeL = CN[C@@H](CC(C)C)C(=O)O; hSer = N[C@@H](CCO)C(=O)O; Nle = CCCC[C@H](N)C(=O)O; AEEA = NCCOCCOCC(=O)O; βAla = NCCC(=O)O
Rule: condition met for hNK3, IP3 Efficacy not less than 30%, condition not met for anything less.

compound	group label
CCCC[C@H](NC(=O)[C@H](CC(C)C)N(C)C(=O)CNC(=O)[C@@H](NC(=O)[C@H](Cc1cccc(O)c1)NC(=O)[C@H](CCCCN)NC(=O)[C@H](CC(=O)O)NC(=O)COCCOCCNC(=O)COCCOCCNC(=O)CC[C@H](NC(=O)CCCCCCCCCCCCCCCCC(=O)O)C(=O)O)C(C)C)C(N)=O [compound 361, *Asp;Lys;3-OH-Phe;Val;Gly;NmLeu;Nle;NH2] ({C18 diacid-γGlu-AEEA-AEEA}-DK[mTyr]VG[NMeL][Nle]-NH2)	condition met
CCCC[C@H](NC(=O)[C@H](CC(C)C)N(C)C(=O)CNC(=O)[C@@H](NC(=O)[C@H](Cc1ccc(I)cc1)NC(=O)[C@H](CCCCN)NC(=O)[C@H](CC(=O)O)NC(=O)COCCOCCNC(=O)COCCOCCNC(=O)CC[C@H](NC(=O)CCCCCCCCCCCCCCCCC(=O)O)C(=O)O)C(C)C)C(N)=O [compound 330, *Asp;Lys;4-I-Phe;Val;Gly;NmLeu;Nle;NH2]	condition not met
CCCC[C@H](NC(=O)[C@H](CC(C)C)N(C)C(=O)CCNC(=O)[C@@H](NC(=O)[C@H](Cc1ccccc1)NC(=O)[C@H](CO)NC(=O)[C@H](CC(=O)O)NC(=O)[C@@H](NC(=O)[C@H](CCCCN)NC(=O)COCCOCCNC(=O)COCCOCCNC(=O)CC[C@H](NC(=O)CCCCCCCCCCCCCCCCC(=O)O)C(=O)O)[C@@H](C)O)C(C)C)C(N)=O [compound 310] ({C18 diacid-γGlu-AEEA-AEEA}-KTDSFV[βAla][NMeL][Nle]-NH2)	condition met
CCCC[C@H](NC(=O)[C@H](CC(C)C)NC(=O)CNC(=O)[C@@H](NC(=O)[C@H](Cc1ccc(O)cc1)NC(=O)[C@H](CCCCN)NC(=O)[C@H](CC(=O)O)NC(=O)COCCOCCNC(=O)COCCOCCNC(=O)CC[C@H](NC(=O)CCCCCCCCCCCCCCCCC(=O)O)C(=O)O)C(C)C)C(N)=O [compound 392, *Asp;Lys;Tyr;Val;Gly;Leu;Nle;NH2] ({C18 diacid-γGlu-AEEA-AEEA}-DKYVGL[Nle]-NH2)	condition not met
COCC[C@H](NC(=O)[C@H](CC(C)C)NC(=O)CNC(=O)[C@@H](NC(=O)[C@H](Cc1ccc(O)cc1)NC(=O)[C@H](CCCCN)NC(=O)[C@H](CC(=O)O)NC(=O)COCCOCCNC(=O)COCCOCCNC(=O)CC[C@H](NC(=O)CCCCCCCCCCCCCCCCC(=O)O)C(=O)O)C(C)C)C(N)=O [compound 393, *Asp;Lys;Tyr;Val;Gly;Leu;Metox;NH2] ({C18 diacid-γGlu-AEEA-AEEA}-DKYVGL[hSer](Me)-NH2)	condition met
CCCC[C@H](NC(=O)[C@H](CC(C)C)N(C)C(=O)CNC(=O)[C@H](CO)NC(=O)[C@H](Cc1ccc(O)cc1)NC(=O)[C@H](CCCCN)NC(=O)[C@H](CC(=O)O)NC(=O)COCCOCCNC(=O)COCCOCCNC(=O)CC[C@H](NC(=O)CCCCCCCCCCCCCCCCC(=O)O)C(=O)O)C(N)=O [compound 386, *Asp;Lys;Tyr;Ser;Gly;NmLeu;Nle;NH2] ({C18 diacid-γGlu-AEEA-AEEA}-DKYSG[NMeL][Nle]-NH2)	condition not met
COCC[C@H](NC(=O)[C@H](CC(C)C)NC(=O)[C@@H](CO)NC(=O)[C@@H](NC(=O)[C@H](Cc1ccc(O)cc1)NC(=O)[C@H](CCCCN)NC(=O)[C@H](CC(=O)O)NC(=O)COCCOCCNC(=O)COCCOCCNC(=O)CC[C@H](NC(=O)CCCCCCCCCCCCCCCCC(=O)O)C(=O)O)C(C)C)C(N)=O [compound 396, *Asp;Lys;Tyr;Val;dSer;Leu;Metox;NH2] ({C18 diacid-γGlu-AEEA-AEEA}-DKYV[dS]L[hSer](Me)-NH2)	condition not met
COCC[C@H](NC(=O)[C@H](CC(C)C)N(C)C(=O)CNC(=O)[C@@H](NC(=O)[C@H](Cc1ccc(O)cc1)NC(=O)[C@H](CCCCN)NC(=O)[C@H](CCC(=O)O)NC(=O)COCCOCCNC(=O)COCCOCCNC(=O)CC[C@H](NC(=O)CCCCCCCCCCCCCCCCC(=O)O)C(=O)O)[C@@H](C)O)C(N)=O [compound 381, *Glu;Lys;Tyr;Thr;Gly;NmLeu;Metox;NH2] ({C18 diacid-γGlu-AEEA-AEEA}-EKYTG[NMeL][hSer](Me)-NH2)	condition not met
CCCC[C@H](NC(=O)[C@H](CC(C)C)N(C)C(=O)CNC(=O)[C@@H](NC(=O)[C@H](Cc1ccc(O)cc1)NC(=O)[C@H](CCCCN)NC(=O)[C@H](CC(=O)O)NC(=O)COCCOCCNC(=O)COCCOCCNC(=O)CC[C@H](NC(=O)CCCCCCCCCCCCC(=O)O)C(=O)O)C(C)C)C(N)=O [compound 368, *Asp;Lys;Tyr;Val;Gly;NmLeu;Nle;NH2] ({C14 diacid-γGlu-AEEA-AEEA}-DKYVG[NMeL][Nle]-NH2)	condition not met

###

# test system: hNK3R (Homo sapiens, UniProt P29371)
# Construct: host or cells: COS-7
# Sequence (P29371 whole entry): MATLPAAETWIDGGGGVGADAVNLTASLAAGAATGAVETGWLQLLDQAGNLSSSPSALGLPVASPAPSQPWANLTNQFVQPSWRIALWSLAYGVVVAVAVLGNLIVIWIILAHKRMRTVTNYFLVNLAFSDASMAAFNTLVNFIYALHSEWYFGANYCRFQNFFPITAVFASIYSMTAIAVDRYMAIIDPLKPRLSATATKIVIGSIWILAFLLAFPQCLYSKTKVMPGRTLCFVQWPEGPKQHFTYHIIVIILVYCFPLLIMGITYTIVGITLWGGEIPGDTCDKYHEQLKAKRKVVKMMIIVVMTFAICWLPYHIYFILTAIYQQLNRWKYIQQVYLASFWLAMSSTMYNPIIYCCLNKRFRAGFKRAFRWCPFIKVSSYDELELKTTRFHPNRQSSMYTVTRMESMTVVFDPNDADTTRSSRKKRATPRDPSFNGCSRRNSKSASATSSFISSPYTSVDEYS
# assay comment: IP3 assay (inositol trisphosphate, 3H-myoinositol) in transiently transfected COS-7 cells
# Format: cell-based
# run parameters: COS-7 cells; figure legends: percent of 10^-6 M NKA
Numbered stars: 1 amine (or outer) side, 2 acyl side, 3 side chain; on linkers, the order of the positions; unused ones are H or OH. Square brackets hold non-standard residues; d marks the D form. Peptide text beside a SMILES is read from it. * marks the point of attachment. C18 diacid = O=C(O)CCCCCCCCCCCCCCCCC(=O)*; γGlu = O=C(O)[C@H](CCC(=O)[*:2])N[*:1]; Stearoyl = CCCCCCCCCCCCCCCCCC(=O)*; NMeL = CN[C@@H](CC(C)C)C(=O)O; Nle = CCCC[C@H](N)C(=O)O; AEEA = NCCOCCOCC(=O)O

compound	scale unit	hNK3, IP3 Efficacy
CCCC[C@H](NC(=O)[C@H](CC(C)C)N(C)C(=O)CNC(=O)[C@@H](NC(=O)[C@H](Cc1ccc(O)cc1)NC(=O)[C@H](CCCNC(=N)N)NC(=O)[C@H](CCC(=O)O)NC(=O)COCCOCCNC(=O)COCCOCCNC(=O)CC[C@H](NC(=O)CCCCCCCCCCCCCCCCC(=O)O)C(=O)O)C(C)C)C(N)=O [compound 357, *Glu;Arg;Tyr;Val;Gly;NmLeu;Nle;NH2] ({C18 diacid-γGlu-AEEA-AEEA}-ERYVG[NMeL][Nle]-NH2)	%	10
CCCCCCCCCCCCCCCCCC(=O)N[C@@H](CCC(=O)NCCOCCOCC(=O)NCCOCCOCC(=O)N[C@@H](CC(=O)O)C(=O)N[C@@H](CCCCN)C(=O)N[C@@H](Cc1ccc(O)cc1)C(=O)N[C@H](C(=O)NCC(=O)N(C)[C@@H](CC(C)C)C(=O)N[C@@H](CCCC)C(N)=O)C(C)C)C(=O)O [compound 390, *Asp;Lys;Tyr;Val;Gly;NmLeu;Nle;NH2] ({Stearoyl-γGlu-AEEA-AEEA}-DKYVG[NMeL][Nle]-NH2)	%	100

###

# test system: hNK1R (Homo sapiens, UniProt P25103)
# Construct: host or cells: COS-7
# Sequence (P25103 whole entry): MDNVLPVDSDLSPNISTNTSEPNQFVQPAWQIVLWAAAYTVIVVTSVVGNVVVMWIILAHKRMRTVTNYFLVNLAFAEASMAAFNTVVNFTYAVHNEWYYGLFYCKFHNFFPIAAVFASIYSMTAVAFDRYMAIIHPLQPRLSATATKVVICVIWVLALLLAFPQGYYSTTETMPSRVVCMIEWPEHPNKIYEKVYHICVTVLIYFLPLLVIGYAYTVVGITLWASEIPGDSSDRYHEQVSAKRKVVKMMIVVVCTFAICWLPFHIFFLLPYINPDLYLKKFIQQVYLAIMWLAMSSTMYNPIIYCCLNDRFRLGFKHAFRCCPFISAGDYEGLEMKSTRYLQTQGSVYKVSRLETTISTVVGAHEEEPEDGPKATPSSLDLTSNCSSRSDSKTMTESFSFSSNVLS
# assay comment: IP3 assay (inositol trisphosphate, 3H-myoinositol) in transiently transfected COS-7 cells
# Type: cell-based
# run parameters: COS-7 cells; figure legends: percent of 10^-6 M NKA
Numbered stars: 1 amine (or outer) side, 2 acyl side, 3 side chain; on linkers, the order of the positions; unused ones are H or OH. Square brackets hold non-standard residues; d marks the D form. Peptide text beside a SMILES is read from it. * marks the point of attachment. C18 diacid = O=C(O)CCCCCCCCCCCCCCCCC(=O)*; γGlu = O=C(O)[C@H](CCC(=O)[*:2])N[*:1]; NMeL = CN[C@@H](CC(C)C)C(=O)O; hSer = N[C@@H](CCO)C(=O)O; Nle = CCCC[C@H](N)C(=O)O; AEEA = NCCOCCOCC(=O)O; Aib = CC(C)(N)C(=O)O

compound	test system	hNK1R, IP3 Efficacy, %
COCC[C@H](NC(=O)[C@H](CC(C)C)N(C)C(=O)CNC(=O)[C@@H](NC(=O)[C@H](Cc1ccc(O)cc1)NC(=O)[C@H](CCCCN)NC(=O)[C@H](CCC(=O)O)NC(=O)COCCOCCNC(=O)COCCOCCNC(=O)CC[C@H](NC(=O)CCCCCCCCCCCCCCCCC(=O)O)C(=O)O)[C@@H](C)O)C(N)=O [compound 381, *Glu;Lys;Tyr;Thr;Gly;NmLeu;Metox;NH2] ({C18 diacid-γGlu-AEEA-AEEA}-EKYTG[NMeL][hSer](Me)-NH2)	hNK1R (Homo sapiens, UniProt P25103)	0
CCCC[C@H](NC(=O)[C@H](CC(C)C)N(C)C(=O)CNC(=O)[C@@H](NC(=O)[C@H](Cc1ccccc1)NC(=O)[C@H](CCCNC(=N)N)NC(=O)[C@H](CCC(=O)O)NC(=O)COCCOCCNC(=O)COCCOCCNC(=O)CC[C@H](NC(=O)CCCCCCCCCCCCCCCCC(=O)O)C(=O)O)C(C)C)C(N)=O [compound 337, *Glu;Arg;Phe;Val;Gly;NmLeu;Nle;NH2] ({C18 diacid-γGlu-AEEA-AEEA}-ERFVG[NMeL][Nle]-NH2)	hNK1R (Homo sapiens, UniProt P25103)	70
CCCC[C@H](NC(=O)[C@H](CC(C)C)N(C)C(=O)CNC(=O)[C@@H](NC(=O)[C@H](Cc1ccccc1)NC(=O)[C@H](CO)NC(=O)[C@H](CC(=O)O)NC(=O)[C@@H](NC(=O)[C@H](CCCCN)NC(=O)COCCOCCNC(=O)COCCOCCNC(=O)CC[C@H](NC(=O)CCCCCCCCCCCCCCCCC(=O)O)C(=O)O)[C@@H](C)O)C(C)C)C(N)=O	hNK1R (Homo sapiens, UniProt P25103)	44
CCCC[C@H](NC(=O)[C@H](CC(C)C)N(C)C(=O)CNC(=O)[C@@H](NC(=O)[C@H](Cc1ccccc1)NC(=O)[C@H](CCCCN)NC(=O)[C@@H](N)CC(=O)O)C(C)C)C(N)=O	hNK1R (Homo sapiens, UniProt P25103)	110
CCCC[C@H](NC(=O)[C@H](CC(C)C)NC(=O)C(C)(C)NC(=O)[C@@H](NC(=O)[C@H](Cc1ccccc1)NC(=O)[C@H](CCCCN)NC(=O)[C@H](CC(=O)O)NC(=O)COCCOCCNC(=O)COCCOCCNC(=O)CC[C@H](NC(=O)CCCCCCCCCCCCCCCCC(=O)O)C(=O)O)C(C)C)C(N)=O [compound 373, *Asp;Lys;Phe;Val;Aib;Leu;Nle;NH2] ({C18 diacid-γGlu-AEEA-AEEA}-DKFV[Aib]L[Nle]-NH2)	hNK1R (Homo sapiens, UniProt P25103)	66
COCC[C@H](NC(=O)[C@H](CC(C)C)NC(=O)CNC(=O)[C@@H](NC(=O)[C@H](Cc1ccc(O)cc1)NC(=O)[C@H](CCCCN)NC(=O)[C@H](CC(=O)O)NC(=O)COCCOCCNC(=O)COCCOCCNC(=O)CC[C@H](NC(=O)CCCCCCCCCCCCCCCCC(=O)O)C(=O)O)C(C)C)C(N)=O [compound 393, *Asp;Lys;Tyr;Val;Gly;Leu;Metox;NH2] ({C18 diacid-γGlu-AEEA-AEEA}-DKYVGL[hSer](Me)-NH2)	hNK1R (Homo sapiens, UniProt P25103)	52
